Parameter: IC50. Scope: all listed entries.
# system-under-test: active p38 alpha enzyme (Upstate Biotechnology) (Homo sapiens)
# Construct: purchased Upstate Biotechnology
# procedure-details: p38α biochemical assay (ATP turnover, luminescent detection, Cambrex PKlight)
# reported-conditions: p38α biochemical assay, Table 1 Biological Activity

Exam item: What does the record list as IC50 for CC(C)NC(=O)c1csc(-c2c(-c3ccc(F)cc3)noc2CNC(=O)c2cc(F)ccc2[N+](=O)[O-])n1 [Example 711] ?
Marked response: > 1000 nM

Exam item: What does the record list as IC50 for CC(=O)c1ccc(C(=O)NCc2onc(-c3ccc(F)cc3)c2-c2nc(C(=O)NC(C)C)cs2)cc1 [Example 642] ?
Marked response: > 1000 nM

Exam item: What does the record list as IC50 for CC(C)NC(=O)c1csc(-c2c(-c3ccc(F)cc3)noc2CNC(=O)c2ccc3c(c2)OCO3)n1 [Example 652] ?
Marked response: > 1000 nM

Exam item: What does the record list as IC50 for Cc1ccccc1OCC(=O)N1CCN(Cc2nc(-c3ccc(F)cc3)c(-c3nc(C(=O)NC(C)C)cs3)o2)CC1 [Example 417] ?
Marked response: > 1000 nM

Exam item: What does the record list as IC50 for CC(C)NC(=O)c1csc(-c2oc(CNC(=O)c3ncc[nH]3)nc2-c2ccc(F)cc2)n1 [Example 106] ?
Marked response: ≤ 1000 nM

Exam item: What does the record list as IC50 for CC(C)NC(=O)c1csc(-c2oc(CNC(=O)C3CCCO3)nc2-c2ccc(F)cc2)n1 (stereo not shown) [Example 109] ?
Marked response: ≤ 1000 nM

Exam item: What does the record list as IC50 for CC(=O)NCC(=O)NCc1nc(-c2ccc(F)cc2)c(-c2nc(C(=O)NC(C)C)cs2)o1 [Example 110] ?
Marked response: ≤ 1000 nM

Exam item: What does the record list as IC50 for CC(C)NC(=O)c1csc(-c2oc(CNC(=O)c3cc([N+](=O)[O-])ccc3O)nc2-c2ccc(F)cc2)n1 [Example 234] ?
Marked response: ≤ 1000 nM

----------
# system-under-test: active p38 alpha enzyme (Upstate Biotechnology) (Homo sapiens, UniProt Q16539)
# Construct: purchased Upstate Biotechnology
# Sequence (Q16539 whole entry): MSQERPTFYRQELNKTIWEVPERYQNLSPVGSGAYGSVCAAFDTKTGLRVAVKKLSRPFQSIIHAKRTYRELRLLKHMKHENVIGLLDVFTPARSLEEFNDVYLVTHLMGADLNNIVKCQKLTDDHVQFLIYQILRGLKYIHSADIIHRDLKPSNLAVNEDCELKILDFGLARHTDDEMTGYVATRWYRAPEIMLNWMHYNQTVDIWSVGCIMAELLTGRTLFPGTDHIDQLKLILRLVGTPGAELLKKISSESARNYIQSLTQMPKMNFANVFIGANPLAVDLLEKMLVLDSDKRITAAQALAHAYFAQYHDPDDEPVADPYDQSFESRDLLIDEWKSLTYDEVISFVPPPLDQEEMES
# procedure-details: p38α biochemical assay (ATP turnover, luminescent detection, Cambrex PKlight)
# reported-conditions: p38α biochemical assay, Table 1 Biological Activity
pIC50: −log10 of the molar value.
Parameter: pIC50. Scope: all listed entries.

Some molecules with recorded pIC50:
CC(C)NC(=O)c1csc(-c2oc(CN3CCN(C(=O)Cc4c(F)cccc4F)CC3)nc2-c2ccc(F)cc2)n1 [Example 430]
< 6.00
COc1ccc([N+](=O)[O-])c(C(=O)NCc2nc(-c3ccc(F)cc3)c(-c3nc(C(=O)NC(C)C)cs3)o2)c1 [Example 265]
≥ 6.00

Exam item: What does the record list as pIC50 for Cc1c(C(=O)NCc2nc(-c3ccc(F)cc3)c(-c3nc(C(=O)NC(C)C)cs3)o2)cccc1[N+](=O)[O-] [Example 223] ?
Marked response: < 6.00

Exam item: What does the record list as pIC50 for CC(C)NC(=O)c1csc(-c2c(-c3ccc(F)cc3)noc2CNC(=O)C2CC(O)CN2C(=O)OC(C)(C)C)n1 (stereo not shown) [Example 792] ?
Marked response: < 6.00

----------
# system-under-test: active p38 alpha enzyme (Upstate Biotechnology) (Homo sapiens, UniProt Q16539)
# Construct: purchased Upstate Biotechnology
# procedure-details: p38α biochemical assay (ATP turnover, luminescent detection, Cambrex PKlight)
# reported-conditions: p38α kinase; Table 1 Biological Activity
pIC50: −log10 of the molar value.
outcome-measure: pIC50

Some compounds with recorded pIC50:
CC(C)NC(=O)c1csc(-c2oc(CNc3cc(C(F)(F)F)ccc3F)nc2-c2ccc(F)cc2)n1 [Example 1364]
< 6.00
CC(C)NC(=O)c1csc(-c2oc(CN3CCCC(CO)C3)nc2-c2ccc(F)cc2)n1 (centres unmarked) [Example 1211]
< 6.00
CC(C)NC(=O)c1csc(-c2c(-c3ccc(F)cc3)noc2CNCC2CCCO2)n1 (centres unmarked) [Example 1409]
< 6.00
CC(C)NC(=O)c1csc(-c2oc(CNCCc3cccc(F)c3)nc2-c2ccc(F)cc2)n1 [Example 1129]
< 6.00
CCC(=O)C(=O)N1CCC(c2[nH]nc(-c3ccc(F)cc3)c2-c2nc(C(=O)NC(C)C)cs2)CC1 [Example 816]
< 6.00

Exam item: What does the record list as pIC50 for CC(C)NC(=O)c1csc(-c2oc(CN3CCN(C4CCCCC4)CC3)nc2-c2ccc(F)cc2)n1 [Example 1247] ?
Marked response: < 6.00

Exam item: What does the record list as pIC50 for Cc1nc(-c2ccc(F)cc2)c(-c2nc(C(=O)Nc3ccc(OC(F)(F)F)cc3)cs2)s1 [Example 2011] ?
Marked response: < 6.00

Exam item: What does the record list as pIC50 for Cc1ccc(NCc2nc(-c3ccc(F)cc3)c(-c3nc(C(=O)NC(C)C)cs3)o2)cc1Cl [Example 1345] ?
Marked response: < 6.00
